Consider the following compounds; for each one, report its pEC50.
tested on: HSV-1 Strain F; assay: Viral qPCR assay, HSV-1 (Example 14); type: cell-based; details: Human alphaherpesvirus 1, Vero, 72 h, Strain F in Vero or MRCS cells, 0.0005-0.004 pfu/cell, viral genome copy number by qPCR, read-out: HSV1 Cell EC50
The quantity pEC50 is defined as the negative base-10 logarithm of the molar concentration.

Q) Could you share what pEC50 was measured for COc1nc(NC(=O)Cc2ccc(C#N)cc2F)ccc1C[C@H]1COC(=O)N1 [Compound 15] , tested on HSV-1 Strain F?
A) 6.34

Q) Could you share what pEC50 was measured for COc1nc(N2CCN(Cc3ccc(C#N)cc3)C2=O)ccc1C[C@H]1COC(=O)N1 [Compound 22] , tested on HSV-1 Strain F?
A) 6.88

Q) Could you share what pEC50 was measured for COc1nc(NC(=O)C2CCc3cc(C#N)ccc32)ccc1C[C@H]1COC(=O)N1 (some centres unmarked) [Compound 19] , tested on HSV-1 Strain F?
A) 6.51

Q) Could you share what pEC50 was measured for COc1nc(NC(=O)Cc2ccc(Cl)cc2CO)ccc1C[C@H]1COC(=O)N1 [Compound 3] , tested on HSV-1 Strain F?
A) 6.40

Q) Could you share what pEC50 was measured for COc1nc(N2CCC(c3ccc(C#N)cc3)C2=O)ccc1C[C@H]1COC(=O)N1 (some centres unmarked) [Compound 20] , tested on HSV-1 Strain F?
A) 6.91

Q) Could you share what pEC50 was measured for COCc1cc(Cl)ccc1CC(=O)Nc1ccc(C[C@H]2COC(=O)N2)c(OC)n1 [Compound 5] , tested on HSV-1 Strain F?
A) 6.78

Q) Could you share what pEC50 was measured for COc1nc(NC(=O)C2CCc3cc(Cl)ccc32)ccc1C[C@H]1COC(=O)N1 (some centres unmarked) [Compound 17] , tested on HSV-1 Strain F?
A) 6.90

Q) Could you share what pEC50 was measured for COc1nc(N2CCC(F)(c3ccc(C#N)cc3)C2=O)ccc1C[C@H]1COC(=O)N1 (single isomer, unassigned) [Compound 8] , tested on HSV-1 Strain F?
A) 6.02
